Assay: Cytotoxicity against CEM174 cells
Type: cell-based
Settings: human, read-out: TC50 (the source's name)
Measured CC50, listed per entry.

In: Which CC50 value belongs to `CCN(CC)c1nc(C)c2[nH]c(SCC(=O)NCCN)nc2n1` ?
Out: > 100 µM

In: What about this molecule? `CCN(CC)c1nc(C)c2[nH]c(SCC(=O)NCCCN)[n+](CCCN(C)C)c2n1`
Out: > 100 µM

In: What about this molecule? `CCN(CC)c1nc(C)c2[nH]c(SCC(=O)NCCNC(=N)N)nc2n1`
Out: > 100 µM

###

Measured CC50, listed per entry.
Experiment: Cytotoxicity against CEM174 cells
Assay type: cell-based
Details: human, read-out: TC50 (the source's name)

# count of solved cases: 3
CCN(CC)c1nc(C)c2[nH]c(SCC(=O)NCCCN)nc2n1 > 100 µM
CCN(CC)CC[n+]1c(SCC(=O)NCCN)[nH]c2c(C)nc(N(CC)CC)nc21 52.2 µM
CCN(CC)CC[n+]1c(SCC(=O)NCCCN)[nH]c2c(C)nc(N(CC)CC)nc21 > 100 µM

In: Which CC50 value belongs to `CCN(CC)c1nc(C)c2[nH]c(SCC(=O)NCCNC(=N)N)[n+](CCCN(C)C)c2n1` ?
Out: > 100 µM

In: What about this molecule? `CCN(CC)CC[n+]1c(SCC(=O)NCCNC(=N)N)[nH]c2c(C)nc(N(CC)CC)nc21`
Out: > 100 µM
